Target: UniProt:P30837
Sequence (P30837 18-517): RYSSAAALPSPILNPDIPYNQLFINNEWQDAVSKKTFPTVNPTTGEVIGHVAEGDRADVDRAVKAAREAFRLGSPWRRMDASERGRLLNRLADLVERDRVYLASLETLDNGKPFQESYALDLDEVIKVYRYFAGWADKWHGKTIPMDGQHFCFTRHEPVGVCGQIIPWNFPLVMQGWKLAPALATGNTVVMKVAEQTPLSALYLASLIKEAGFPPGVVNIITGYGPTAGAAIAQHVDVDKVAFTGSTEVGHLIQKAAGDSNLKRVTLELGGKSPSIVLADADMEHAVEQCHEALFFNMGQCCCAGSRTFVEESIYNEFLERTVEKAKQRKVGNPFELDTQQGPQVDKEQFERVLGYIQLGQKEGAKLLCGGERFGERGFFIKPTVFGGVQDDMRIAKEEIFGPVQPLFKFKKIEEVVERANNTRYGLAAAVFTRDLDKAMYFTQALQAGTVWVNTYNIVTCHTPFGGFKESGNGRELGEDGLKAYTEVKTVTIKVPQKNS
QUANTITY NAME: pIC50
Just the number, please; pIC50 means minus log10 of the concentration in mol/L.

Sample CCN(CC)c1ccc(C=O)cc1 [DEAB] — what was its pIC50?
5.92
